test system: P12-Ichikawa; assay: cell viability relative to DMSO control; higher = less cytotoxic; conditions: RPMI 5 mM glucose + 10% dialyzed FBS; 48 h; 5.12 µM
property label: cell viability (%)

> print(dat)
                                    compound  property.label  measure.unit  assay.result
 1  COc1ncc(-c2ccc3nccc(-c4ccnnc4)c3c2)cc1N[S+](=O)([O-])c1ccc(F)cc1F  cell viability             %          47.5
 2  CCC(C)(Oc1ccc(C2(c3ccc(OC(C)(CC)C(=O)O)cc3)CCCCC2)cc1)C(=O)O (centres undefined)  cell viability             %          89.1
 3  CN1CCCN=C1/C=C/c1cccs1.O=C(O)c1cc2ccccc2c(Cc2c(O)c(C(=O)O)cc3ccccc23)c1O  cell viability             %           114
 4                    S=P(N1CC1)(N1CC1)N1CC1  cell viability             %          86.9
 5  CCn1c(-c2nonc2N)nc2cnc(Oc3cccc(NC(=O)c4ccc(OCCN5CCOCC5)cc4)c3)cc21  cell viability             %           102
 6  O=C(O[C@H]1C[C@H]2CC[C@@H](C1)[N+]21CCCC1)C(O)(c1ccccc1)c1ccccc1.[Cl-]  cell viability             %           107
 7     CCN1\C=C(\C(O)=O)C(=O)C2=CC=C(C)N=C12  cell viability             %          91.3
 8  COC(=O)[C@@H]1[C@H]2C[C@H]3c4[nH]c5ccccc5c4CCN3C[C@@H]2CC[C@@H]1O  cell viability             %          70.6
 9  CN(C)[C@H]\1[C@@H]2C[C@H]3C(=C(O)\[C@]2(O)C(=O)\C(=C1O)C(N)=O)/C(=O)C4=C(O)C=CC=C4[C@@]3(C)O  cell viability             %           105
10  O=C(Nc1ccccc1-c1cn2c(CN3CCNCC3)csc2n1)c1cnc2ccccc2n1  cell viability             %          77.8
11  C[C@@H]\1CC(=O)N\N=C1C2=CC=C(NN=C(C#N)C#N)C=C2  cell viability             %          83.7
12                Cn1cnc2c1c(=O)[nH]c(=O)n2C  cell viability             %          87.2
13  Cc1cn([C@@H]2O[C@H](CO)[C@@H](O)[C@@H]2F)c(=O)[nH]c1=O  cell viability             %           123
14  CNc1nccc(-c2cccnc2Oc2cc(C(=O)Nc3cccc(C(F)(F)F)c3)ccc2C)n1  cell viability             %           111
15  C=C(C)[C@H]1Cc2c(ccc3c2O[C@@H]2COc4cc(OC)c(OC)cc4[C@@H]2C3=O)O1  cell viability             %          59.9
16  N[C@H](CSC(c1ccccc1)(c1ccccc1)c1ccccc1)C(=O)O  cell viability             %           127
17  O=C(O)C1=NC(C(=O)O)CC(/C=C/N2c3cc(O)c(OC4OC(CO)C(O)C(O)C4O)cc3CC2C(=O)O)=C1 (centres undefined)  cell viability             %           100
18  C[C@]12CCC(=O)C=C1CC[C@@H]1[C@@H]2CC[C@@]2(C)[C@H]1CC[C@]2(C)O  cell viability             %          97.5
19  CC(C)=CC[C@@H](O)C/1=C/C(=O)C2=C(O)C=CC(=C2C1=O)O  cell viability             %           113
20  CNC1CCC(N(Cc2cccc(-c3ccncc3)c2)C(=O)c2sc3c(F)ccc(F)c3c2Cl)CC1 (centres undefined)  cell viability             %           103
21  O=C(O)c1ccc2c(c1)nc(Nc1cccc(Cl)c1)c1ccncc12  cell viability             %          77.8
22  CSCC[C@@H](NC(=O)[C@@H](Cc1ccccc1)NC(=O)CNC(=O)CNC(=O)[C@@H](N)Cc1ccc(O)cc1)C(=O)O  cell viability             %           102
23  COc1cc2ncnc(Nc3cc(Br)c(O)c(Br)c3)c2cc1OC  cell viability             %           105
24   CCOC(=O)C/1=C(O)/C(=O)N(CC2=CC=CC=C2)C1  cell viability             %           114

* * *

system: SEM cells; assay: cell viability relative to DMSO control; higher = less cytotoxic; settings: HPLM + 10% dialyzed FBS; 48 h; 0.569 µM
Below, each entry is listed with its recorded cell viability.
property label: cell viability

> print(dat)
                                item.smiles  property.label  assay.result
1  Cc1ccc([S+](=O)([O-])N[C@@H](Cc2ccccc2)C(=O)CCl)cc1  cell viability         96.4%
2                Cn1cnc2c1c(=O)[nH]c(=O)n2C  cell viability          112%
3            Cc1cccc(Nc2nc(-c3ccncc3)cs2)c1  cell viability          104%
4  CSCC[C@@H](NC(=O)[C@@H](Cc1ccccc1)NC(=O)CNC(=O)CNC(=O)[C@@H](N)Cc1ccc(O)cc1)C(=O)O  cell viability         94.9%
5  C#C[C@]1(O)CC[C@H]2[C@@H]3CCc4cc(O)ccc4[C@H]3CC[C@@]21C  cell viability          103%
6                    S=P(N1CC1)(N1CC1)N1CC1  cell viability          103%
7  CC(C)(C(=O)NCC(F)(F)C(F)(F)F)C(=O)N[C@@H]1C(=O)Nc2ccccc2-c2ccccc21  cell viability          119%
8     C[C@]1(c2nc3c(C(N)=O)cccc3[nH]2)CCCN1  cell viability         74.5%
9  CO[C@H]1/C=C\C=C(\C)C(=O)NC2=CC(=O)C(NCCN(C)C)=C(C[C@@H](C)C[C@H](OC)[C@H](O)[C@@H](C)/C=C(/C)[C@@H]1OC(N)=O)C2=O  cell viability         31.6%

* * *

test system: SEM cells; test: cell viability relative to DMSO control; higher = less cytotoxic; conditions: HPLM + 10% dialyzed FBS; 48 h; 0.000781 µM
Below, each entry is listed with its recorded cell viability.

item smiles	target entity	cell viability / %
COc1cc(OC)c(/C=C/[S+](=O)([O-])Cc2ccc(OC)c(NCC(=O)[O][Na])c2)c(OC)c1	SEM cells	123
CC(C)NC[C@@H](C(=O)N1CCN(c2ncnc3c2[C@H](C)C[C@H]3O)CC1)c1ccc(Cl)cc1	SEM cells	113
NC/1=N/[C@]2(COC[C@H]2CS1)C3=CC(=CC=C3F)NC(=O)C4=NC=C(F)C=C4	SEM cells	90.8
CC(C)CC(=O)N[C@H](C(=O)N[C@H](C(=O)N[C@@H](CC(C)C)[C@@H](O)CC(=O)N[C@@H](C)C(=O)N[C@@H](CC(C)C)[C@@H](O)CC(=O)O)C(C)C)C(C)C	SEM cells	94.4

* * *

tested on: NOMO1; test: cell viability relative to DMSO control; higher = less cytotoxic; conditions: RPMI 5 mM glucose + 10% dialyzed FBS; 48 h; 46.1 µM
Below, each entry is listed with its recorded cell viability.
property label: cell viability (%)

> print(dat)
                                   compound  property.label  assay.result
1  FC1=CC=C(SC/2=N/N3\C=N/C(=O)/C(=C3/C=C2)C4=C(Cl)C=CC=C4Cl)C(=C1)F  cell viability          72.5
2  CCC(C)(Oc1ccc(C2(c3ccc(OC(C)(CC)C(=O)O)cc3)CCCCC2)cc1)C(=O)O (stereo not drawn)  cell viability           101
3  CNC(=O)c1ccc(N2C(=S)N(c3ccc(C#N)c(C(F)(F)F)c3)C(=O)C23CCC3)cc1F  cell viability           103
4  CSCC[C@@H](NC(=O)[C@@H](Cc1ccccc1)NC(=O)CNC(=O)CNC(=O)[C@@H](N)Cc1ccc(O)cc1)C(=O)O  cell viability           109
5  C#C[C@]1(O)CC[C@H]2[C@@H]3CCc4cc(O)ccc4[C@H]3CC[C@@]21C  cell viability          48.4
6  COc1ccc(-c2nc(N3CCOCC3)c3sc(CN(C)c4ncc(C(=O)NO)cn4)cc3n2)cn1  cell viability          6.02
7  C[N]1C=C(C2=C1C=CC=C2)\C3=C(\C(=O)NC3=O)C4=C5CC(CN)CC[N]5C6=C4C=CC=C6 (stereo not drawn)  cell viability          63.4
8  COC1=CC=C(C=C1)C/2=C/OC3=C(C(=CC(=C3)O)O)C2=O  cell viability           106
